Assay: Solubility study (HPLC-UV, phosphate buffers)
Type: physicochemical
Settings: 25 °C, aqueous buffer, kinetic from dmso stock; 50 mM phosphate buffer pH 7.4, 24 hours, 25±2° C., 2% DMSO, theoretical maximum 200 μM; read-out: Solubility at pH = 7.4

- STRUCTURE_STRING: "Cc1cccc(CN2C(=O)c3nc(-c4nc(Nc5ccnn5C)ncc4C)sc3C23COC3)n1"
  UNITS_LABEL: "µM"
  solubility at 24 h: 2.64

###

Assay: In vivo PK study in SD rats
Design: species or system rat
Conditions: rat, plasma; male SD rats, 1 mg/kg intravenously or 10 mg/kg orally
PROPERTY_MEASURED: half-life (h)

- MOLECULE: "Cc1cccc(CN2C(=O)c3nc(-c4nc(Nc5ccnn5C)ncc4C)sc3C23COC3)n1 [WX001]"
  PROPERTY_MEASURED: "half-life"
  UNITS_LABEL: "h"
  NUMERIC_VALUE: 3.77

###

Assay: In vivo PK study in mice
Parameters: species or system mouse
Conditions: mouse, plasma; female BALB/c mice, 1 mg/kg intravenously or 3 mg/kg orally

- STRUCTURE_STRING: "Cc1cccc(CN2C(=O)c3nc(-c4nc(Nc5ccnn5C)ncc4C)sc3C23COC3)n1"
  half-life [h]: 1.1

###

Experiment: In vivo PK study in cynomolgus monkeys
Parameters: species or system cynomolgus monkey
Conditions: cynomolgus monkey; male cynomolgus monkeys, single dose, 1 mg/kg intravenously or 3 mg/kg orally, plasma

- STRUCTURE_STRING: "Cc1cccc(CN2C(=O)c3nc(-c4nc(Nc5ccnn5C)ncc4C)sc3C23COC3)n1"
  UNITS_LABEL: "nM"
  Cmax: 921

###

Assay: Solubility study (HPLC-UV, phosphate buffers)
Assay type: physicochemical
Conditions: 25 °C, aqueous buffer, kinetic from dmso stock; 50 mM phosphate buffer pH 6.5, 24 hours, 25±2° C., 2% DMSO, theoretical maximum 200 μM; read-out: Solubility at pH = 6.5
PROPERTY_MEASURED: solubility at 24 h (µM)

- STRUCTURE_STRING: "Cc1cccc(CN2C(=O)c3nc(-c4nc(Nc5ccnn5C)ncc4C)sc3C23COC3)n1"
  NUMERIC_VALUE: 2.94

###

Experiment: In vivo PK study in cynomolgus monkeys
Design: species or system cynomolgus monkey
Settings: cynomolgus monkey, plasma; male cynomolgus monkeys, 1 mg/kg intravenously or 3 mg/kg orally

- COMPOUND: "Cc1cccc(CN2C(=O)c3nc(-c4nc(Nc5ccnn5C)ncc4C)sc3C23COC3)n1 [WX001]"
  half-life (h): 2.41

###

Assay: In vivo PK study in SD rats
Design: species or system rat
Conditions: rat, plasma; male SD rats, 1 mg/kg intravenously, 10 mg/kg orally; oral bioavailability
PROPERTY_MEASURED: bioavailability (%)

- STRUCTURE_STRING: "Cc1cccc(CN2C(=O)c3nc(-c4nc(Nc5ccnn5C)ncc4C)sc3C23COC3)n1"
  PROPERTY_MEASURED: "bioavailability"
  NUMERIC_VALUE: 49

###

Test: In vivo PK study in cynomolgus monkeys
Set-up: species or system cynomolgus monkey
Conditions: cynomolgus monkey, plasma, intravenous; male cynomolgus monkeys, 1 mg/kg intravenously or 3 mg/kg orally
PROPERTY_MEASURED: clearance (mL/min/kg)

- STRUCTURE_STRING: "Cc1cccc(CN2C(=O)c3nc(-c4nc(Nc5ccnn5C)ncc4C)sc3C23COC3)n1"
  PROPERTY_MEASURED: "clearance"
  NUMERIC_VALUE: 16.1

###

Test: In vivo PK study in mice
Parameters: species or system mouse
Conditions: mouse, plasma, intravenous; female BALB/c mice, 1 mg/kg intravenously or 3 mg/kg orally; read-out: Vdss
PROPERTY_MEASURED: Vd

- STRUCTURE_STRING: "Cc1cccc(CN2C(=O)c3nc(-c4nc(Nc5ccnn5C)ncc4C)sc3C23COC3)n1"
  RESULT: "1.23 L/kg"

###

Experiment: In vivo PK study in beagle dogs
Set-up: species or system beagle dog
Conditions: dog, plasma, intravenous; male beagle dogs, 1 mg/kg intravenously or 3 mg/kg orally; read-out: Vdss

- MOLECULE: "Cc1cccc(CN2C(=O)c3nc(-c4nc(Nc5ccnn5C)ncc4C)sc3C23COC3)n1 [WX001]"
  UNITS_LABEL: "L/kg"
  Vd: 1.29

###

Test: In vivo PK study in mice
Design: species or system mouse
Details: mouse, plasma; female BALB/c mice, 1 mg/kg intravenously, 3 mg/kg orally; oral bioavailability

- STRUCTURE_STRING: "Cc1cccc(CN2C(=O)c3nc(-c4nc(Nc5ccnn5C)ncc4C)sc3C23COC3)n1"
  UNITS_LABEL: "%"
  bioavailability: 154

###

Assay: In vivo PK study in beagle dogs
Parameters: species or system beagle dog
Settings: dog, plasma; male beagle dogs, 1 mg/kg intravenously or 3 mg/kg orally

- STRUCTURE_STRING: "Cc1cccc(CN2C(=O)c3nc(-c4nc(Nc5ccnn5C)ncc4C)sc3C23COC3)n1"
  half-life / h: 3.48

###

Experiment: In vivo PK study in SD rats
Design: species or system rat
Conditions: rat, plasma, intravenous; male SD rats, 1 mg/kg intravenously or 10 mg/kg orally
PROPERTY_MEASURED: clearance (mL/min/kg)

- MOLECULE: "Cc1cccc(CN2C(=O)c3nc(-c4nc(Nc5ccnn5C)ncc4C)sc3C23COC3)n1 [WX001]"
  PROPERTY_MEASURED: "clearance"
  NUMERIC_VALUE: 13.4

###

Assay: In vivo PK study in SD rats
Parameters: species or system rat
Settings: rat, plasma, intravenous; male SD rats, 1 mg/kg intravenously or 10 mg/kg orally; read-out: Vdss

- COMPOUND: "Cc1cccc(CN2C(=O)c3nc(-c4nc(Nc5ccnn5C)ncc4C)sc3C23COC3)n1 [WX001]"
  Vd: "1.08 L/kg"

###

Test: In vivo PK study in beagle dogs
Set-up: species or system beagle dog
Conditions: dog, plasma; male beagle dogs, 1 mg/kg intravenously, 3 mg/kg orally; oral bioavailability

- STRUCTURE_STRING: "Cc1cccc(CN2C(=O)c3nc(-c4nc(Nc5ccnn5C)ncc4C)sc3C23COC3)n1"
  bioavailability: "60%"

###

Assay: In vivo PK study in mice
Set-up: species or system mouse
Details: mouse, plasma, intravenous; female BALB/c mice, 1 mg/kg intravenously or 3 mg/kg orally

- STRUCTURE_STRING: "Cc1cccc(CN2C(=O)c3nc(-c4nc(Nc5ccnn5C)ncc4C)sc3C23COC3)n1"
  clearance, mL/min/kg: 18.9

###

Assay: In vivo PK study in SD rats
Design: species or system rat
Settings: rat; male SD rats, single dose, 1 mg/kg intravenously or 10 mg/kg orally, plasma

- STRUCTURE_STRING: "Cc1cccc(CN2C(=O)c3nc(-c4nc(Nc5ccnn5C)ncc4C)sc3C23COC3)n1"
  UNITS_LABEL: "nM"
  Cmax: 2500

###

Assay: In vivo PK study in beagle dogs
Set-up: species or system beagle dog
Conditions: dog; male beagle dogs, single dose, 1 mg/kg intravenously or 3 mg/kg orally, plasma

- STRUCTURE_STRING: "Cc1cccc(CN2C(=O)c3nc(-c4nc(Nc5ccnn5C)ncc4C)sc3C23COC3)n1"
  Cmax, nM: 1770
